system: P388; test: Cytotoxicity against mouse P388 cells after 48 hrs by MTT assay; assay type: functional, cell-based; settings: P388, 48 h
EXPERIMENTAL_ENDPOINT: IC50 (µg/mL)
Answers are plain numbers, in µg/mL.

Example cases with answers are listed next.
COC(=O)[C@@]12OC[C@]34[C@H]([C@@H](O)[C@@H]1O)[C@@]1(C)C(=O)C(O[C@@H]5O[C@H](CO)[C@@H](O)[C@H](O)[C@H]5O)=C[C@@H](C)[C@@H]1C[C@H]3OC(=O)[C@H](OC(=O)CC(C)C)[C@@H]24 [JAVANICOSIDE B]
5.6
COC(=O)[C@@]12OC[C@]34[C@H]([C@@H](O)[C@@H]1O)[C@@]1(C)C=C(O[C@@H]5O[C@H](CO)[C@@H](O)[C@H](O)[C@H]5O)C(=O)[C@@H](C)[C@@H]1C[C@H]3OC(=O)[C@H](OC(=O)CC(C)C(C)(C)OC(C)=O)[C@@H]24 (some centres undefined) [JAVANICOSIDE E]
16
COC(=O)[C@@]12OC[C@]34[C@H]([C@@H](O)[C@@H]1O)[C@@]1(C)[C@H](O)[C@@H](O)C=C(C)[C@@H]1C[C@H]3OC(=O)[C@H](OC(=O)/C=C(\C)C(C)(C)O)[C@@H]24 [JAVANICOLIDE D]
18

Attention now turns to another entry.
*Q* # lookup: P388 IC50, key = CC/C(=C\C(=O)O[C@H]1C(=O)O[C@@H]2C[C@H]3[C@H](C)C(=O)C(O[C@@H]4O[C@H](CO)[C@@H](O)[C@H](O)[C@H]4O)=C[C@]3(C)[C@H]3[C@@H](O)[C@H](O)[C@@]4(C(=O)OC)OC[C@]32[C@@H]14)C(C)(C)O [JAVANICOSIDE D]
*A* 89

====

tested on: P388; assay: Cytotoxicity against mouse P388 cells after 48 hrs by MTT assay; type: functional, cell-based; conditions: P388, 48 h
I'd be grateful if you could share measured IC50 for these entries.
Numbers only, in µg/mL.

COC(=O)[C@@]12OC[C@@]34[C@@H](CC5=C(C)C(=O)C(O[C@@H]6O[C@H](CO)[C@@H](O)[C@H](O)[C@H]6O)=C[C@]5(C)[C@H]3[C@@H](O)[C@@H]1O)OC(=O)[C@H](OC(=O)C=C(C)C)[C@@H]24 [JAVANICOSIDE C]
18

Attention now turns to another entry.
*Q* Answer with reported IC50 of CC/C(C)=C/C(=O)O[C@H]1C(=O)O[C@@H]2C[C@H]3[C@H](C)C(=O)C(O[C@@H]4O[C@H](CO)[C@@H](O)[C@H](O)[C@H]4O)=C[C@]3(C)[C@H]3[C@@H](O)[C@H](O)[C@@]4(C(=O)OC)OC[C@]32[C@@H]14 [JAVANICOSIDE F]
*A* 50
